Form field: IC50 (one value per entry).
target: cIAP-2 BIR3 (residues 238-349) (Homo sapiens (Human)); test: Fluorescence polarization (FP) based competitive binding assay, cIAP-2 BIR3; details: FP competitive assay, Smac-2F probe; read-out: Binding Affinities IC50 (nM) cIAP2 Protein
Sequence (Q13489 238-349): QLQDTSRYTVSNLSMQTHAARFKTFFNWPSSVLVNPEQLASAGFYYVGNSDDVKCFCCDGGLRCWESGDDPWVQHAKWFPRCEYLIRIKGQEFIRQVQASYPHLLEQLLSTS
Measured property: IC50

1. CN[C@@H](C)C(=O)N[C@H]1CN(C(=O)NCCCCCCNC(=O)N2CC[C@H]3CC[C@@H](C(=O)N[C@@H]4CCC[C@H]4c4ccccc4)N3C(=O)[C@@H](NC(=O)[C@H](C)NC)C2)CC[C@H]2CCC(C(=O)N[C@@H]3CCC[C@H]3c3ccccc3)N2C1=O (stereo in doubt) ... < 3000 nM
2. CN[C@@H](C)C(=O)N[C@H]1CN(C(=O)NCCCCCCNC(=O)N2CC[C@H]3CC[C@@H](C(=O)N[C@H]4C[C@H](c5ccccc5)C4)N3C(=O)[C@@H](NC(=O)[C@H](C)NC)C2)CC[C@H]2CCC(C(=O)N[C@H]3C[C@H](c4ccccc4)C3)N2C1=O (some centres unmarked) ... < 5000 nM
3. CN[C@@H](C)C(=O)N[C@H]1CN(C(=O)Nc2ccc(NC(=O)N3CC[C@H]4CC[C@@H](C(=O)N[C@H]5C[C@@H]5c5ccc(F)cc5)N4C(=O)[C@@H](NC(=O)[C@H](C)NC)C3)cc2)CC[C@H]2CC[C@@H](C(=O)N[C@H]3C[C@@H]3c3ccc(F)cc3)N2C1=O ... < 1000 nM
4. CN[C@@H](C)C(=O)N[C@H]1CN(C(=O)Nc2ccc(NC(=O)N3CC[C@H]4CC[C@@H](C(=O)N[C@H]5CCC[C@@H]5c5ccccc5)N4C(=O)[C@@H](NC(=O)[C@H](C)NC)C3)cc2)CC[C@H]2CC[C@@H](C(=O)N[C@H]3CCC[C@@H]3c3ccccc3)N2C1=O ... < 3000 nM
5. CN[C@@H](C)C(=O)N[C@H]1CN(C(=O)Nc2ccc(NC(=O)N3CC[C@H]4CC[C@@H](C(=O)N[C@@H]5CCCc6ccccc65)N4C(=O)[C@@H](NC(=O)[C@H](C)NC)C3)cc2)CC[C@H]2CCC(C(=O)N[C@@H]3CCCc4ccccc43)N2C1=O (some centres unmarked) ... < 100 nM
6. CN[C@@H](C)C(=O)N[C@H]1CN(C(=O)Nc2ccc(Cc3ccc(NC(=O)N4CC[C@H]5CC[C@@H](C(=O)N[C@@H]6CCCc7ccccc76)N5C(=O)[C@@H](NC(=O)[C@H](C)NC)C4)cc3)cc2)CC[C@H]2CCC(C(=O)N[C@@H]3CCCc4ccccc43)N2C1=O (some centres unmarked) ... < 100 nM
7. CN[C@@H](C)C(=O)N[C@H]1CN(S(=O)(=O)CCC/C=C/CCCS(=O)(=O)N2CC[C@H]3CC[C@@H](C(=O)NC(c4ccccc4)c4ccccc4)N3C(=O)[C@@H](NC(=O)[C@H](C)NC)C2)CC[C@H]2CCC(C(=O)NC(c3ccccc3)c3ccccc3)N2C1=O (some centres unmarked) ... < 100 nM
8. CN[C@@H](C)C(=O)N[C@H]1CN(S(=O)(=O)CCCCCCS(=O)(=O)N2CC[C@H]3CC[C@@H](C(=O)NC(c4ccccc4)c4ccccc4)N3C(=O)[C@@H](NC(=O)[C@H](C)NC)C2)CC[C@H]2CCC(C(=O)NC(c3ccccc3)c3ccccc3)N2C1=O (some centres unmarked) ... < 100 nM
9. CN[C@@H](C)C(=O)N[C@H]1CN(C(=O)NCc2cccc(CNC(=O)N3CC[C@H]4CC[C@@H](C(=O)N[C@@H]5CCCc6ccccc65)N4C(=O)[C@@H](NC(=O)[C@H](C)NC)C3)c2)CC[C@H]2CCC(C(=O)N[C@@H]3CCCc4ccccc43)N2C1=O (some centres unmarked) ... < 100 nM
10. CN[C@@H](C)C(=O)N[C@H]1CN(C(=O)NCCCCCCNC(=O)N2CC[C@H]3CC[C@@H](C(=O)NC(c4ccccc4)c4ccccc4)N3C(=O)[C@@H](NC(=O)[C@H](C)NC)C2)CC[C@H]2CCC(C(=O)NC(c3ccccc3)c3ccccc3)N2C1=O (some centres unmarked) ... < 300 nM
11. CN[C@@H](C)C(=O)N[C@H]1CN(C(=O)NCCCCCCNC(=O)N2CC[C@H]3CC[C@@H](C(=O)N[C@H]4CCCC[C@@H]4c4ccccc4)N3C(=O)[C@@H](NC(=O)[C@H](C)NC)C2)CC[C@H]2CCC(C(=O)N[C@H]3CCCC[C@@H]3c3ccccc3)N2C1=O (stereo in doubt) ... < 3000 nM
12. CN[C@@H](C)C(=O)N[C@H]1CN(S(=O)(=O)CC/C=C/CCS(=O)(=O)N2CC[C@H]3CC[C@@H](C(=O)NC(c4ccccc4)c4ccccc4)N3C(=O)[C@@H](NC(=O)[C@H](C)NC)C2)CC[C@H]2CCC(C(=O)NC(c3ccccc3)c3ccccc3)N2C1=O (some centres unmarked) ... < 300 nM
13. CN[C@@H](C)C(=O)N[C@H]1CN(C(=O)Nc2ccc(NC(=O)N3CC[C@H]4CC[C@@H](C(=O)N[C@@H]5CCC[C@H]5c5ccccc5)N4C(=O)[C@@H](NC(=O)[C@H](C)NC)C3)cc2)CC[C@H]2CC[C@@H](C(=O)N[C@@H]3CCC[C@H]3c3ccccc3)N2C1=O ... < 3000 nM
14. CN[C@@H](C)C(=O)N[C@H]1CN(C(=O)NCCCCCCNC(=O)N2CC[C@H]3CC[C@@H](C(=O)N[C@H]4CCC[C@@H]4c4ccccc4)N3C(=O)[C@@H](NC(=O)[C@H](C)NC)C2)CC[C@H]2CCC(C(=O)N[C@H]3CCC[C@@H]3c3ccccc3)N2C1=O (stereo in doubt) ... < 3000 nM
